assay: Plasma clearance was determined after 1 mg/kg (i.v.) / 2 mg/kg (p.o.) of compound administration; format: ADME, organism-based, Canis lupus familiaris; details: dog, iv, read-out: Clp
ATTRIBUTE MEASURED: clearance
# do not omit the unit; it follows the number

clearance recorded for this compound, "N[C@H](C(=O)N1CC[C@H](F)C1)[C@H]1CC[C@H](NS(=O)(=O)c2ccc(F)cc2F)CC1" , is 9.1 mL/min/kg

====

assay: Volume of distribution at steady state was determined after 1 mg/kg (i.v.) / 2 mg/kg (p.o.) of compound administration; assay type: ADME, organism-based, Canis lupus familiaris; conditions: dog, in vivo, iv, read-out: Vdss
ATTRIBUTE MEASURED: Vd (L/kg)
Provide the reading as a plain figure in L/kg.

Vd recorded for this molecule, "N[C@H](C(=O)N1CC[C@H](F)C1)[C@H]1CC[C@H](NS(=O)(=O)c2ccc(F)cc2F)CC1" , is 4.4

====

assay: Maximum plasma concentration reached by compound was determined after 2 mg/kg (p.o.) administration; assay type: ADME, organism-based; parameters: dose 2 mg/kg, route oral; conditions: rat, po
ATTRIBUTE MEASURED: Cmax (nM)
Provide the reading as a plain figure in nM.

Cmax recorded for this molecule, "N[C@H](C(=O)N1CC[C@H](F)C1)[C@H]1CC[C@H](NS(=O)(=O)c2ccc(F)cc2F)CC1" , is 400

====

assay: Maximum plasma concentration reached by compound was determined after 2 mg/kg (p.o.) administration; type: ADME, organism-based, Canis lupus familiaris; design: dose 2 mg/kg, route oral; settings: dog, po
ATTRIBUTE MEASURED: Cmax (nM)
Provide the reading as a plain figure in nM.

Cmax recorded for this compound, "N[C@H](C(=O)N1CC[C@H](F)C1)[C@H]1CC[C@H](NS(=O)(=O)c2ccc(F)cc2F)CC1" , is 1000

This collection of values is drawn from ChEMBL document CHEMBL1147603.
